System: EKVX NSCLC
Assay: NCI tumour cell line growth inhibition, 48 h
Measured TGI accompanies every entry in the list below.

# CHEM SMILES, VALUE COMPARATOR, TGI (µM)
rows = [
    ("CN(C)c1nc(NCCNS(=O)(=O)c2ccc(C(=O)/C=C/c3ccccc3)cc2)nc(Nc2ccc(F)cc2)n1", "=", 14.8),
    ("COc1cc(-c2nc3ccc(C)cc3[nH]2)ccc1OCc1nnc(-c2ccc(Br)cc2)o1", ">", 100),
    ("O=C(N=Nc1c(O)[nH]c2ccc(Br)cc12)c1ccc2nc(-c3ccc(Cl)cc3)[nH]c2c1", ">", 38),
    ("COc1ccc(C(=O)/C=C/c2cccnc2)cc1S(N)(=O)=O", "=", 24.2),
]
